Quick list: cytotoxicity at 70.5 h per entry.
assayRemarks: Human HepG2 cell viability assay in 384 well format
Format: toxicity, cell-based
Design: dose 125 nL, time 70.5 hour; concentration not given beside the values
conditionDescription: HepG2 cells, read-out: Inhibition

Field: example entries. Status: answers known.
COCc1nn(C)c2c1CN(Cc1cnn(C)c1)CC2 ... -11.4%
c1cnc(N2CCN3C[C@H](Oc4cncnc4)C[C@H]3C2)nc1 ... -1.15%
CN(Cc1cc(C2CC2)[nH]n1)Cc1cc2ccc(F)cc2[nH]c1=O ... -12.6%
COc1ccc(C(CNC(=O)NCc2csc(C)n2)N(C)C)cc1 (stereo not drawn) ... 21%

# get_value(readout='cytotoxicity at 70.5 h', item= CCn1nc(C(=O)N2CCNCC2C(=O)Nc2ccc(C)nc2)cc1C (stereo not drawn) )
3.8%

Quick one: O=C(CCc1nc(Cl)n[nH]1)N1C[C@@H](CN2CCCCC2)[C@@H](CO)C1
-6.93%

Quick one: Cc1cccc(CN2CCN(C(=O)c3cnc(C)[nH]c3=O)CC2)c1
12.7%

Quick one: COCCN1C[C@@H](C)[C@@]2(COCCN(C(=O)c3ccno3)C2)C1
-1.41%

Quick one: O=C(NCC(O)c1ccccc1C(F)(F)F)c1cccnc1 (stereo not drawn)
-11%

Quick one: COCCN(CC1CCCN(C2Cc3ccccc3C2)C1)C(=O)COC (stereo not drawn)
-7.6%

Quick one: COc1cc(N2CCO[C@H]3[C@@H](Oc4cccnc4)CC[C@@H]32)ncn1
26.1%

###

assayRemarks: Human HepG2 cell viability assay in 384 well format
Assay type: toxicity, cell-based
Parameters: dose 125 nL, time 70.5 hour; concentration not given beside the values
conditionDescription: HepG2 cells, read-out: Inhibition
Quick list: cytotoxicity at 70.5 h per entry.
# number only, unit % dropped from output

Field: example entries. Status: answers known.
CC(C)[C@@H]1CN(C(=O)CCn2ccccc2=O)C[C@H]1NS(C)(=O)=O ... -7.19
CC(NC(=O)NC1CCN(Cc2ccncc2)CC1)c1cccc(F)c1 (stereo unspecified) ... -6.53
NC(=O)COc1ccc(CNCc2ccc(F)c(F)c2)cc1 ... 0.155
Cc1ccnn1CCC(=O)N1CCC(c2cnccn2)CC1 ... -7.09
Cn1ncc(C(=O)N2CCN(S(C)(=O)=O)CC2)c1Cl ... 20.9

As a next step, examine the molecule that follows.
# get_value(readout='cytotoxicity at 70.5 h', item= COc1ccc(CN2C[C@H]3CCC[C@@H](CN(C)C)[C@H]3C2)cn1 )
-2.35

###

assayRemarks: Human HepG2 cell viability assay in 384 well format
Assay type: toxicity, cell-based
Design: dose 125 nL, time 70.5 hour; concentration not given beside the values
conditionDescription: HepG2 cells, read-out: Inhibition
readoutType: cytotoxicity at 70.5 h (%)
# number only, unit % dropped from output

Field: example entries. Status: answers known.
Cc1cnn(CC2CN(Cc3nc4ccccc4n3C)CCO2)c1 (stereo unspecified) ... 9.31
CN1[C@H]2CC[C@@H]1CN(c1cc(Sc3cccs3)nc(N)n1)CC2 ... 22.8
CCOc1ccc(NC(=O)NCCCN(C)S(C)(=O)=O)cc1C ... -15.1
Clc1ccccc1CN1CCCC(c2nnc(-c3cnccn3)o2)C1 (stereo unspecified) ... -5.49
Cn1ncc2c1C(COCC1CC1)CN(C(=O)Cc1ccsc1)C2 (stereo unspecified) ... -2.83

# get_value(readout='cytotoxicity at 70.5 h', item= C1=CCN(c2nc(CC3CC3)nc3c2CCN(C2CCOCC2)CC3)C1 )
-1.95
